tested on: SMN2-linked luciferase-reporter gene construct; test: SMN Splice Reporter Assay (SMN2-linked luciferase reporter); type: cell-based; settings: cervical carcinoma cell lines, SMN2 splice luciferase reporter
measure.name: log10 of EC50 (log10 of the value in nM)
All values: log10 EC50 [nM].

{"columns": ["sample.smiles", "log10 of EC50"],
 "data": [
  ["COc1ccc2c(c1)C(=O)N(c1ccc3c(c1)OC(C)(C)O3)C2", 0.95],
  ["Cn1ccc2cc(N3Cc4c(Br)cccc4C3=O)ccc21", 3.01],
  ["CC=Cc1ccc2c(c1)C(=O)N(c1ccc3c(ccn3C)c1)C2", 1.65],
  ["CCOc1ccc2c(c1)C(=O)N(c1ccc3c(ccn3C)c1)C2", 1.84],
  ["COc1ccc2c(c1)C(=O)N(c1ccc(C(C)C)nc1)C2", 2.69]
]}

*Q* Look up log10 of EC50: Cn1ccc2ccc(N3Cc4ccc(O)cc4C3=O)cc21
*A* 2.72

*Q* Looking for the measured log10 of EC50 of COc1ccc2c(c1)C(=O)N(c1ccc(C(C)C)cn1)C2 , can you help?
*A* 2.37

*Q* Query: log10 of EC50; subject: Cn1ccc2ccc(N3Cc4cc5c(cc4C3=O)OCCO5)cc21
*A* 1.46

*Q* Fill in the blank: the reported log10 of EC50 of Cn1ccc2cc(N3Cc4ccc(O)cc4C3=O)ccc21 is ____.
*A* 2.20

###

The entries below come with measured EC50 values attached.
test system: SMN2-linked luciferase-reporter gene construct; assay: SMN Splice Reporter Assay (SMN2-linked luciferase reporter); assay type: cell-based; conditions: cervical carcinoma cell lines, SMN2 splice luciferase reporter
Express your answer in nM, writing the number without its unit.

{"columns": ["sample.smiles", "EC50, nM"],
 "data": [
  ["COc1ccc2c(c1)C(=O)N(c1ccc(C)cn1)C2", 166],
  ["Cc1cc2cc(N3Cc4ccc(OC(C)C)cc4C3=O)ccc2n1C", 63],
  ["Cn1ccc2cc(N3Cc4cccc(Cl)c4C3=O)ccc21", 361],
  ["Cn1ccc2ccc(N3Cc4cc(N)ccc4C3=O)cc21", 175],
  ["O=C1c2ccccc2CN1c1ccc(Br)cn1", 456]
]}

*Q* Please look up its EC50: COc1ccc2c(c1)C(=O)N(c1ccc3c(c1)N(C)CCO3)C2
*A* 117

*Q* Can you look up the measured EC50 of COc1cc2c(cc1OC)C(=O)N(c1ccc3ccn(C)c3c1)C2 for me?
*A* 2060

*Q* // EC50 lookup, key: COc1ccc2c(c1)C(=O)N(c1ccc3ncoc3c1)C2
*A* 336

###

measure.name: melting point

{"columns": ["molecule", "melting point"],
 "data": [
  ["CCOc1ccc2c(c1)C(=O)N(c1ccc3c(ccn3C)c1)C2 [Example 6]", "185 to 190 °C"],
  ["CCCCc1ccc2c(c1)C(=O)N(c1ccc3c(ccn3C)c1)C2 [Example 13]", "167 to 168 °C"],
  ["COc1ccc2c(c1)CN(c1ccc3sccc3c1)C2=O [Example 25]", "183 to 186 °C"],
  ["O=C1c2ccccc2CN1c1ccc2c(c1)OCCO2 [Example 46]", "170 to 176 °C"]
]}

Would you kindly look at the next entry?
*Q* Give its melting point value. Item: C/C=C(/C)c1ccc2c(c1)C(=O)N(c1ccc3c(ccn3C)c1)C2 [Example 14]
*A* 144 to 145 °C

###

Each entry below lists one item and its recorded pEC50 value.
test system: SMN2-linked luciferase-reporter gene construct; test: SMN Splice Reporter Assay (SMN2-linked luciferase reporter); assay type: cell-based; settings: cervical carcinoma cell lines, SMN2 splice luciferase reporter
In simple prose, pEC50 is minus the logarithm base ten of a concentration in moles per litre.

Worked set:
{"columns": ["sample.smiles", "pEC50"],
 "data": [
  ["Cn1ccc2cc(N3Cc4cccc([N+](=O)[O-])c4C3=O)ccc21", 6.47],
  ["O=C1c2cc3c(cc2CN1c1ccc2sccc2c1)OCCO3", 7.18]
]}

*Q* Requested field: pEC50. Item: Cn1ccc2cc(N3Cc4ccccc4C3=O)ccc21
*A* 6.80

*Q* For the compound shown here, Cn1ccc2cc(N3Cc4ccc(OC5CCCC5)cc4C3=O)ccc21 , give the reported pEC50.
*A* 7.08

*Q* // returns reported pEC50 for input CN(C)c1ccc2c(c1)C(=O)N(c1ccc3ccn(C)c3c1)C2
*A* 7.37

*Q* Given COc1ccc2c(c1)C(=O)N(c1ccc3c(ccn3C)n1)C2 , state its recorded pEC50.
*A* 6.79

*Q* Fill in: pEC50 of COc1cccc2c1CN(c1ccc3ncccc3c1)C2=O is ___
*A* 5.90

###

system: SMN2-linked luciferase-reporter gene construct; assay: SMN Splice Reporter Assay (SMN2-linked luciferase reporter); format: cell-based; details: cervical carcinoma cell lines, SMN2 splice luciferase reporter
Listing of entries alongside the reported pEC50.
Reminder that pEC50 is minus the log10 of a molar concentration.

{"columns": ["molecule", "pEC50"],
 "data": [
  ["COCn1ccc2ccc(N3Cc4ccc(OC)cc4C3=O)cc21", 6.92],
  ["CC(C)Oc1ccc2c(c1)C(=O)N(c1ccc3ccn(C)c3c1)C2", 6.77],
  ["COc1ccc2c(c1)C(=O)N(c1ccc3c(cnn3C)c1)C2", 7.23]
]}

*Q* For the molecule Cc1cc2cc(N3Cc4ccc(OC(F)F)cc4C3=O)ccc2n1C , what pEC50 is on record?
*A* 6.43

###

System: SMN2-linked luciferase-reporter gene construct
Test: SMN Splice Reporter Assay (SMN2-linked luciferase reporter)
Type: cell-based
Conditions: fold-increase of luciferase over baseline reading of transformed cells without any test compound
From the text: As previously discussed, SMN1 is the gene deleted in SMA patients; the SMN2 gene remains intact in both SMA and normal patients. […] Cervical carcinoma cell lines were transformed with a SMN2-linked luciferase-reporter gene construct. […] Luciferase sequences are in the correct translational reading frame only when the SMN2 sequences are spliced according to the normal SMN1 mechanism (e.g., splicing to include exon 7), which allows for translation of the stable SMN protein. […]
measure.name: Fold Increase

Sample records with Fold Increase:
{"columns": ["sample.smiles", "Fold Increase"],
 "data": [
  ["COc1cccc2c1CN(c1ccc3c(ccn3C)c1)C2=O", 1.444],
  ["CC(=O)Nc1ccc2c(c1)C(=O)N(c1ccc3c(c1)cc(C)n3C(C)C)C2", 1.329],
  ["Cn1ccc2cc(N3Cc4cc(F)ccc4C3=O)ccc21", 1.401]
]}

*Q* Give the reported Fold Increase for COc1ccc2c(c1)C(=O)N(c1ccc3ccc(C)nc3c1)C2 (system: SMN2-linked luciferase-reporter gene construct).
*A* 1.411

*Q* Observed Fold Increase on SMN2-linked luciferase-reporter gene construct for COc1ccc2c(c1)CN(c1ccc3c(ccn3C)c1)C2 , please.
*A* 1.518

*Q* Any idea what Fold Increase came out for COc1ccc2c(c1)C(=O)N(c1ccc3ncoc3c1)C2 on SMN2-linked luciferase-reporter gene construct?
*A* 1.317

*Q* Under SMN2-linked luciferase-reporter gene construct: Fold Increase value of O=C1c2ccccc2CN1c1ccc2c(c1)CCC2 ?
*A* 1.445

*Q* Lab note: need Fold Increase with SMN2-linked luciferase-reporter gene construct for entry Cc1cc2ccc(N3Cc4ccc(-c5cccnc5)cc4C3=O)cc2n1C , please look it up.
*A* 1.082

*Q* // map CC(C)Cc1ccc2c(c1)C(=O)N(c1ccc3c(ccn3C)c1)C2 to recorded Fold Increase (system: SMN2-linked luciferase-reporter gene construct)
*A* 1.323

###

Collected Fold Increase values appear next to each entry.
system: SMN2-linked luciferase-reporter gene construct; test: SMN Splice Reporter Assay (SMN2-linked luciferase reporter); assay type: cell-based; settings: fold-increase of luciferase over baseline reading of transformed cells without any test compound
The answer should be a number; do not append a unit.

Observe how each entry below is paired with its result.
{"columns": ["compound", "Fold Increase"],
 "data": [
  ["Cc1cc2cc(N3Cc4ccc(OC(C)C)cc4C3=O)ccc2n1C", 1.554],
  ["CCc1ccc2c(c1)C(=O)N(c1ccc3c(ccn3C)c1)C2", 1.529],
  ["CC(C)n1ccc2cc(N3Cc4ccc(N5CCCC5)cc4C3=O)ccc21", 1.091],
  ["CCC(C)c1ccc2c(c1)C(=O)N(c1ccc3c(ccn3C)c1)C2 (stereo not shown)", 1.539],
  ["CN(C)c1ccc2c(c1)C(=O)N(c1ccc3c(ccn3C)c1)C2", 1.594]
]}

*Q* If you can, please state the reported Fold Increase value of COc1ccc2c(c1)C(=O)N(c1ccc3scc(C)c3c1)C2 .
*A* 1.773

###

tested on: SMN2-linked luciferase-reporter gene construct; experiment: SMN Splice Reporter Assay (SMN2-linked luciferase reporter); assay type: cell-based; conditions: fold-increase of luciferase over baseline reading of transformed cells without any test compound
Measured Fold Increase accompanies every entry in the list below.
A bare number is all that is needed in reply.

Observe how each entry below is paired with its result.
{"columns": ["sample.smiles", "Fold Increase"],
 "data": [
  ["Cc1cc2cc(N3Cc4ccc(O)cc4C3=O)ccc2n1C", 1.336],
  ["O=C1c2ccccc2CN1c1ccc2c(c1)OC(F)(F)O2", 1.202],
  ["Cn1ccc2cc(N3Cc4cccc(Cl)c4C3=O)ccc21", 1.395]
]}

Then there is this compound:
*Q* Can you share its Fold Increase? I mean this compound: COc1ccc2c(c1)C(=O)N(c1ccc3c(c1)CCCN3C)C2
*A* 1.702
